tested on: IFNγ; experiment: Cytokine assay: IFNγ release from PHA-L stimulated human PBMCs; type: cell-based
pIC50: −log10 of the molar value.
In this section, each of the compounds is paired with its reported pIC50.
quantity: pIC50

- compound: "CCOc1c(OC)ccc(-c2cncc(C3COB(O)C3)c2)c1C(F)F (single isomer, unassigned) [Example 11]"
  experimental-result: 7.17
- compound: "COc1ccc(-c2cncc(C3COB(O)C3)c2)cc1OC (single isomer, unassigned; enantiomer 2) [Example 221]"
  experimental-result: 8.03
- compound: "CSc1ccc(-c2cncc(C3COB(O)C3)c2)cc1OC1CCCC1 (single isomer, unassigned) [Example 101]"
  experimental-result: 7.88

###

tested on: IFNγ; assay: Cytokine assay: IFNγ release from PHA-L stimulated human PBMCs; type: cell-based; settings: Homo sapiens, PBMC
In this section, each of the compounds is paired with its reported IC50.

- compound: "COc1ccc(-c2cc(C3COB(O)C3)ccn2)cc1OC1CCCC1 (single isomer, unassigned; enantiomer 2) [Example 211]"
  IC50 (nM): 1.83
- compound: "CCCOc1cc(-c2nc(OCCO)cc(C3COB(O)C3)n2)ccc1OC (single isomer, unassigned; enantiomer 1) [Example 196]"
  IC50 (nM): 0.81
- compound: "CCCOc1c(OC)ccc(-c2cccc(C3=CB(O)OC3)c2)c1C#N"
  IC50 (nM): 76
- compound: "CCCOc1cccc(-c2cncc(C3COB(O)C3)c2)c1 (centres unmarked) [Example 145]"
  IC50 (nM): 52.1
- compound: "CCCOc1cc(-c2cncc(C3COB(O)C3)c2)cnc1OC (centres unmarked) [Example 51]"
  IC50 (nM): 1.64
- compound: "CCOc1cc(-c2nc(OC)cc(C3COB(O)C3)n2)ccc1OC (single isomer, unassigned; enantiomer 2) [Example 186]"
  IC50 (nM): 5.13
- compound: "CCCOc1cc(-c2nc(CO)cc(C3COB(O)C3)n2)ccc1OC (centres unmarked)"
  IC50 (nM): 2.29
- compound: "CCCOc1c(OC)ccc(-c2cccc(C3COB(O)C3)n2)c1F (centres unmarked)"
  IC50 (nM): 3.36

###

system: IFNγ; assay: Cytokine assay: IFNγ release from PHA-L stimulated human PBMCs; format: cell-based; conditions: Homo sapiens, PBMC
Rule: measured IC50 below 4 nM gets 1; anything equal to or greater than 4 nM gets -1.

- compound: "CCOc1cc(-c2nc(C3COB(O)C3)cs2)ccc1OC (stereo not drawn) [Example 58]"
  class-label: 1
- compound: "CCCOc1nc(-c2cc(C3COB(O)C3)cnc2C)ccc1OC (single isomer, unassigned; enantiomer 1)"
  class-label: 1
- compound: "CCOc1cc(-c2cncc(C3COB(O)C3)c2)c(Cl)cc1OC (stereo not drawn) [Example 47]"
  class-label: 1
- compound: "COc1ccc(-c2cccc(C3COB(O)C3)n2)c(C#N)c1OC1CCCC1 (stereo not drawn)"
  class-label: -1
- compound: "CCOc1cc(-c2cncc(C3COB(O)C3)c2)cc(C#N)c1OC (stereo not drawn) [Example 118]"
  class-label: 1
- compound: "CCOc1cc(-c2cncc([C@H]3COB(O)C3)c2)ccc1OC"
  class-label: 1
- compound: "CCOc1ccc(-c2cncc(C3COB(O)C3)c2)cc1OC (stereo not drawn) [Example 187]"
  class-label: -1
- compound: "CCOc1cc(-c2cncc(C3COB(O)C3)c2)c(F)cc1OC (stereo not drawn) [Example 46]"
  class-label: 1
- compound: "COc1ccc(-c2cc(C3=CB(O)OC3)ccn2)cc1OC"
  class-label: -1

All values here come from patent US11559538B2.
